- Experimental details: Displacement of [3H]nitrendipine binding to L-type calcium channel of Guinea pig cerebral cortex membranes
- Type: tissue-based, Cavia porcellus
pIC50: −log10 of the molar value.
Readout type: pIC50

Guide cases for pIC50, answers given:
CC(C)c1cn2ccccc2c1S(=O)(=O)c1ccc(OCCCNC(C)(C)C)cc1 ... 7.76
COc1ccc(CCN(C)CCCOc2ccc(S(=O)(=O)c3c(C(C)C)cn4ccccc34)cc2)cc1OC ... 9.21
COc1cc(CCNCCCOc2ccc(S(=O)(=O)c3c(C(C)C)cn4ccccc34)cc2)cc(OC)c1 ... 9.28
COc1ccc(CN(C)CCCCOc2ccc(S(=O)(=O)c3c(C(C)C)cn4ccccc34)cc2)cc1OC ... 8.35

a. CC(C)c1cn2ccccc2c1S(=O)(=O)c1ccc(OCCCN(C)C)cc1
b. CCCCCCCCN(CCCCCCCC)CCCOc1ccc(S(=O)(=O)c2c(C(C)C)cn3ccccc23)cc1
c. CCCCN(CCCC)CCOc1ccc(S(=O)(=O)c2c(CC)cn3ccccc23)cc1
d. CCCCN(CCCOc1ccc(S(=O)(=O)c2c(C(C)C)cn3ccccc23)cc1)CCc1ccc(OC)c(OC)c1
[Q] Order the records by pIC50, with each subsequent value no larger than the one before. Put the labels in the order asked and list them.
[A] d, b, c, a
(d: 9.08, b: 8.19, c: 7.48, a: 6.70)

a. CC(C)c1cn2ccccc2c1S(=O)(=O)c1ccc(OCCCN2CCC(c3ccccc3)CC2)cc1
b. COc1ccc(NCCCOc2ccc(S(=O)(=O)c3c(C(C)C)cn4ccccc34)cc2)cc1OC
[Q] pIC50 comparison. Which is larger, a or b ? // respond with label for picked entry
[A] a

P. CCCCN(CCCC)CCCOc1ccc(S(=O)(=O)c2c(C(C)C)cn3ccccc23)cc1
Q. CCCCN(CCCC)CCCOc1ccc(S(=O)(=O)c2c(-c3ccccc3)cn3ccccc23)cc1
R. CCCCN(CCCC)CCCOc1ccc(S(=O)(=O)c2c(C)cn3ccccc23)cc1
S. CCCCN(CCCC)CCCCCOc1ccc(S(=O)(=O)c2c(CC)cn3ccccc23)cc1
[Q] # ascending order, key=pIC50 Put the labels in the order asked and list them.
[A] Q, R, S, P
